System tested: human GPR40 (Homo sapiens)
Construct: expressed in transfected cells
Assay info: Ca2+ mobilization (FLIPR) in a stable GPR40-expressing cell; GPR40 agonist activity
Type: cell-based
Protocol conditions: compound concentration corresponding to 50% PosiC, 100% = intracellular calcium level induced by 80 μM palmitic acid
Structures can show the parent of a compound that is named as a salt.
Reported endpoint: EC50

See these solved cases before continuing.
compound="CC#C[C@@H](CC(=O)O)c1ccc(OCC2=CCCC3(CCCCC3)C2)cc1 [Example 2, sodium salt]" system_tested="human GPR40 (Homo sapiens)" observed="10 to 100 nM"
compound="CC#CC(CC(=O)O)c1ccc(OCC2CCCC3(CCCCC3)C2)cc1 (racemic)" system_tested="human GPR40 (Homo sapiens)" observed="100 to 1000 nM"
compound="CC#C[C@@H](CC(=O)O)c1ccc(OCC2=CC3(CCCCC3)CC2)cc1 [Example 16, sodium salt]" system_tested="human GPR40 (Homo sapiens)" observed="100 to 1000 nM"
compound="CCC#CC(CC(=O)O)c1ccc(OCC2CCCC3(CCCCC3)C2)cc1 (racemic)" system_tested="human GPR40 (Homo sapiens)" observed="1000 to 10000 nM"
compound="CCOC(CC(=O)O)c1ccc(OCC2=CC3(CCCCC3)CCC2)cc1 (racemic) [Example 41]" system_tested="human GPR40 (Homo sapiens)" observed="10 to 100 nM"

For CC#C[C@@H](CC(=O)O)c1ccc(OCC2=CC3(CCCC3)CC2)cc1 the compound record lists EC50 as 100 to 1000 nM

###

System tested: human GPR40 (Homo sapiens)
Assay info: Ca2+ mobilization (FLIPR) in a stable GPR40-expressing cell; GPR40 agonist activity
Protocol conditions: compound concentration corresponding to 50% PosiC, 100% = intracellular calcium level induced by 80 μM palmitic acid
pEC50: −log10 of the molar value. Where a name gives a salt, the structure may show the parent alone.
Reported endpoint: pEC50

See these solved cases before continuing.
compound="O=C(O)CCc1ccc(OCC2CCCC3(CCCC3)C2)nc1 (racemic) [Example 113, hydrochloride]" system_tested="human GPR40 (Homo sapiens)" observed="5.00 to 6.00"
compound="CC#C[C@@H](CC(=O)O)c1ccc(OCC2CCCC3(CCCCC3)C2O)cc1 (mixture of isomers) [Example 70]" system_tested="human GPR40 (Homo sapiens)" observed="6.00 to 7.00"
compound="CC#C[C@@H](CC(=O)O)c1ccc(OCC2CCCC3(CCCCC3)C2)cc1 (some centres unmarked) [Example 29, sodium salt]" system_tested="human GPR40 (Homo sapiens)" observed="6.00 to 7.00"
compound="CC#C[C@@H](CC(=O)O)c1ccc(OC2CCCC3(CCCCC3)C2)cc1 (mixture of isomers) [Example 64]" system_tested="human GPR40 (Homo sapiens)" observed="6.00 to 7.00"
compound="CC#C[C@@H](CC(=O)O)c1ccc(OCC2CCCCC3(CC3)C2)cc1 (mixture of isomers) [Example 116]" system_tested="human GPR40 (Homo sapiens)" observed="5.00 to 6.00"

Value sought: pEC50, system human GPR40 (Homo sapiens), item O=C(O)CCc1ccc(OCC2=CC3(CCCC3)CCC2)c(F)c1 [Example 112] . Result: ≤ 5.00

Value sought: pEC50, system human GPR40 (Homo sapiens), item CC#C[C@@H](CC(=O)O)c1ccc(OCC2=CCC3(CCCC3)C2)cc1 [Example 11] . Result: 6.00 to 7.00

Value sought: pEC50, system human GPR40 (Homo sapiens), item CC#C[C@@H](CC(=O)O)c1ccc(OCC2=CCC3(CCCCC3)C2)cc1 [Example 14, sodium salt] . Result: 6.00 to 7.00

###

System tested: human GPR40 (Homo sapiens, UniProt O14842)
Sequence (O14842 whole entry): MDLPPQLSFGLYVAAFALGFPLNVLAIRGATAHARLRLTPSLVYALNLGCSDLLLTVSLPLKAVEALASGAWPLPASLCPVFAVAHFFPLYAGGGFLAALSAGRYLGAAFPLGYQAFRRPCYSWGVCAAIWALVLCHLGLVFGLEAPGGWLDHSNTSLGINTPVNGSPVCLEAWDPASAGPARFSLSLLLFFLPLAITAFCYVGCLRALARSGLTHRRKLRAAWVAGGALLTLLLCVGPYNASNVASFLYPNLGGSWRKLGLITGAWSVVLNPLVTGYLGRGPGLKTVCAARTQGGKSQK
Assay info: Ca2+ mobilization (FLIPR) in a stable GPR40-expressing cell; GPR40 agonist activity
Protocol conditions: compound concentration corresponding to 50% PosiC, 100% = intracellular calcium level induced by 80 μM palmitic acid
pEC50: −log10 of the molar value.
Reported endpoint: pEC50

For Cn1nnnc1C(CC(=O)O)c1ccc(OCC2CCCC3(CCCCC3)C2)cc1 (racemic) the compound record lists pEC50 as 7.00 to 8.00

For O=C(O)CCc1ccc(OCC2CCC3(CCCCC3)CC2)cc1 the compound record lists pEC50 as 5.00 to 6.00

For CC#C[C@@H](CC(=O)O)c1ccc(OC2CCC3(CCCCC3)CC2)cc1 the compound record lists pEC50 as 6.00 to 7.00

For O=C(O)CCc1ccc(OCC2=CC3(CCCC3)CCC2)c(O)c1 the compound record lists pEC50 as 6.00 to 7.00

For COCC(CC(=O)O)c1ccc(OCC2CCCC3(CCCCC3)C2)cc1 (racemic) the compound record lists pEC50 as 5.00 to 6.00

###

System tested: human GPR40 (Homo sapiens)
Assay info: Ca2+ mobilization (FLIPR) in a stable GPR40-expressing cell; GPR40 agonist activity
Protocol conditions: compound concentration corresponding to 50% PosiC, 100% = intracellular calcium level induced by 80 μM palmitic acid
pEC50: −log10 of the molar value. Structures can show the parent of a compound that is named as a salt.
Reported endpoint: pEC50

See these solved cases before continuing.
compound="O=C(O)CCc1ccc(OCCC2CCCC3(CCCCC3)C2)cc1 (racemic) [Example 62]" reported_endpoint=pEC50 observed="≤ 5.00"
compound="CC(C)OC(CC(=O)O)c1ccc(OCC2CCCC3(CCCCC3)C2)cc1 (racemic) [Example 81]" reported_endpoint=pEC50 observed="6.00 to 7.00"
compound="CC#C[C@@H](CC(=O)O)c1ccc(OCC2CCCC3(CCCC3)C2)cc1 (single isomer, unassigned) [Example 37]" reported_endpoint=pEC50 observed="6.00 to 7.00"

For COC1CCC2(CCC(COc3ccc(CCC(=O)O)cc3)CC2)CC1 (racemic) [Example 114] the compound record lists pEC50 as ≤ 5.00

For CC#C[C@@H](CC(=O)O)c1ccc(OCC2=C[C@@]3(CCC2)CC[C@H](O)C3)cc1 [Example 99, sodium salt] the compound record lists pEC50 as 5.00 to 6.00

For O=C(O)CCc1ccc(OC2CCCC3(CCCCC3)C2)cc1 (racemic) [Example 61] the compound record lists pEC50 as ≤ 5.00

For O=C(O)CCc1ccc(OCC2CCC3(CCCCCC3)C2)cc1 (racemic) [Example 21] the compound record lists pEC50 as ≤ 5.00

For CC#C[C@@H](CC(=O)O)c1ccc(OCC2CCCC3(CCCC3)C2)cc1 (single isomer, unassigned) [Example 39] the compound record lists pEC50 as 6.00 to 7.00

###

The compounds listed here are annotated with their pEC50.
System tested: human GPR40 (Homo sapiens)
Assay info: Ca2+ mobilization (FLIPR) in a stable GPR40-expressing cell; GPR40 agonist activity
Protocol conditions: compound concentration corresponding to 50% PosiC, 100% = intracellular calcium level induced by 80 μM palmitic acid
pEC50: −log10 of the molar value. Where a name gives a salt, the structure may show the parent alone.

See these solved cases before continuing.
compound="CC#C[C@@H](CC(=O)O)c1ccc(OCC2=C[C@]3(CCC2)CC[C@@H](O)C3)cc1 [Example 105, sodium salt]" system_tested="human GPR40 (Homo sapiens)" observed="5.00 to 6.00"
compound="CCC[C@@H](CC(=O)O)c1ccc(OCC2CCCC3(CCCCC3)C2)cc1 (mixture of isomers)" system_tested="human GPR40 (Homo sapiens)" observed="5.00 to 6.00"

For C=CC(CC(=O)O)c1ccc(OCC2CCCC3(CCCCC3)C2)cc1 (racemic) the compound record lists pEC50 as 5.00 to 6.00

For O=C(O)CC(c1ccc(OCC2CCCC3(CCCCC3)C2)cc1)c1ncco1 (racemic) the compound record lists pEC50 as 6.00 to 7.00

For CC#C[C@@H](CC(=O)O)c1ccc(OCC2CCC3(CCC3)C2)cc1 (mixture of isomers) the compound record lists pEC50 as 6.00 to 7.00

For CC#C[C@@H](CC(=O)O)c1ccc(OCC2=CCCC3(CCCC3)C2)cc1 [Example 6, sodium salt] the compound record lists pEC50 as 6.00 to 7.00

For O=C(O)CC(c1ccccc1)c1ccc(OCC2CCCC3(CCCCC3)C2)cc1 (racemic) the compound record lists pEC50 as 5.00 to 6.00

For CC#C[C@@H](CC(=O)O)c1ccc(OCC2=C[C@@]3(CCC2)CCC(=O)C3)cc1 [Example 97, sodium salt] the compound record lists pEC50 as 6.00 to 7.00

###

System tested: human GPR40 (Homo sapiens)
Assay info: Ca2+ mobilization (FLIPR) in a stable GPR40-expressing cell; GPR40 agonist activity
Protocol conditions: compound concentration corresponding to 50% PosiC, 100% = intracellular calcium level induced by 80 μM palmitic acid
Where a name gives a salt, the structure may show the parent alone.
The compounds listed here are annotated with their EC50.

See these solved cases before continuing.
compound="CC#CC(CC(=O)O)c1ccc(COC2CCCC3(CCCCC3)C2)cc1 (racemic) [Example 82]" reported_endpoint=EC50 observed="1000 to 10000 nM"
compound="CC1(C)CC(COc2ccc(CCC(=O)O)cc2)CC2(CCCC2)C1 (racemic) [Example 115]" reported_endpoint=EC50 observed="1000 to 10000 nM"
compound="CC#C[C@@H](CC(=O)O)c1ccc(OCC2=C[C@]3(CCC2)CC[C@H](O)C3)cc1 [Example 107, sodium salt]" reported_endpoint=EC50 observed="100 to 1000 nM"

For C/C=C\[C@@H](CC(=O)O)c1ccc(OCC2CCCC3(CCCCC3)C2)cc1 (mixture of isomers) [Example 77] the compound record lists EC50 as 100 to 1000 nM

For CC#C[C@@H](CC(=O)O)c1ccc(OCC2CCCC3(CCCCC3)C2)cc1 (single isomer, unassigned) [Example 32] the compound record lists EC50 as 100 to 1000 nM

For CC#C[C@@H](CC(=O)O)c1ccc(OCC2=CCCC3(CCCCC3)C2)cc1 [Example 1] the compound record lists EC50 as 10 to 100 nM

For CC#C[C@H](c1ccc(OCC2CCCC3(CCCCC3)C2)cc1)C1SC(=O)NC1=O (mixture of isomers) [Example 68] the compound record lists EC50 as 1000 to 10000 nM

For O=C(O)CCc1ccc(OCC2=CC3(CCC3)CC2)cc1 [Example 117] the compound record lists EC50 as 1000 to 10000 nM
